Where these numbers come from: patent US20220259593A1

Please go through the items and note down their Mean relative activity.
test system: K562 CRISPRi cells; test: Constant region variant library pooled growth screen, K562; type: cell-based, human; conditions: sgRNA constant region variants; activity relative to the original, un-modified constant region cr995
One number for each entry.

cr635 (nucleic acid, listed as DNA, chemistry not fully specified) guide: GTTTAAGAGCTAAGCTGGAAACAGCATAGCAAGTTTAAATAAGGCTAGTCCGTTATCAACTTGAAAAAGTGGCACCGGGTCGGTGCT; 0.7174
cr050 (nucleic acid, listed as DNA, chemistry not fully specified) guide: CTTTAGGAGCTAAGCTGGAAACAGCATAGCAAGTTTAAATAAGGCTAGTCCGTTATCAACTTGAAAAAGTGGCACCGAGTCGGTGCT; 0.04785
cr957 (nucleic acid, listed as DNA, chemistry not fully specified) guide: GTTTAAGAGCTAAGCTGGAAACAGCATAGCAAGTTTAAATAAGGGTACTCCGTTATCAACTTGAAAAAGTGCCACCGAGTCGGTGGT; 0.5576
cr156 (nucleic acid, listed as DNA, chemistry not fully specified) guide: GTTTAAGAGCTAAGCTGGAAACAGCATAGCAAGTTTAAATAAGGCTAGTCCGTTATCAACTAGAAATAGTGGCACCGAGTCGGTGCT; 1.072
cr753 (nucleic acid, listed as DNA, chemistry not fully specified) guide: GTTTAAGAGCTAAGCTGGAAACAGCATAGCAAGTTTAAATAACGCTAGTCGGTTATCATCTTGAAAAAGAGGAACCGAGTCGGTTCT; 0.004302
cr594 (nucleic acid, listed as DNA, chemistry not fully specified) guide: GTTTAAGAGCTAAGCTGGAAACAGCATTGCAAGTTTAAATAGGGCTAGTCCGCTATCAACTTGAAAAAGTGGCACCGAGTCGGTGCT; 0.7395
cr942 (nucleic acid, listed as DNA, chemistry not fully specified) guide: GTTTAAGAGCTAAGCTGGAAACAGCATAGCAAGTTTAAATAAGGCTAGTCCGTTACCAACTTGAACAAGTGGCACCGAGTCGGTGCT; 1.087
cr309 (nucleic acid, listed as DNA, chemistry not fully specified) guide: GTTTAAGAGCTAAGCTGGAAACAGCATAGCAAGGTTAAATAAGGCTAGGCCGTTATCAACTTGAAAAAGTGGCACCGAGTCGGTGCT; 0.005045
cr875 (nucleic acid, listed as DNA, chemistry not fully specified) guide: GTTTAAGAGCTAAGCTGGAAACAGCATAGCAAGTTTAAATAAGGCTAGTCCGTTATCACCTGGAAACAGGGGCACCCAGTGGGTGCT; 0.743
cr008 (nucleic acid, listed as DNA, chemistry not fully specified) guide: GTCTAAGAGCTAAGCTGGAAACAGCATAGCAAGTTTAAATAAGGCTAGTCCGTTATCAACTTGAAAAAGTGGCACCGAGTCGGTGCT; 0.5955

I would be grateful if you could provide Mean relative activity for each of the following entries.
1. cr116 (nucleic acid, listed as DNA, chemistry not fully specified) guide: GTTTAAGAGCTAAGCTGGAAACAGCATAGCAAGTTTAAATAAGGCTAGTCCGTTATCAACGTGAAAACGTGGCACCGAGTCGGTGCT
2. cr370 (nucleic acid, listed as DNA, chemistry not fully specified) guide: GTTTAAGAGCTAAGCTGGAAACAGCATAGCAAGTTTAAATAAGGCTAGTCCGTTATCAACTTGAGAAAGTGGCACGGAGTCCGTGCT
3. cr314 (nucleic acid, listed as DNA, chemistry not fully specified) guide: GTTTAAGAGCTAAGCTGGAAACAGCATAGCAAGGTTAAATAAGGCTAGTCCGTTATCAACTTGAAAAAGTGGAACCGAGTCGGTTCT
4. cr244 (nucleic acid, listed as DNA, chemistry not fully specified) guide: GTTTAAGAGCTAAGCTGGAAACAGCATAGCAAGGTTAAATAAGGGTACTCCGTTATCAACTTGAAAAAGTGGCACCGAGTCGGTGCT

Reply:
[1.064, 0.8417, 0.03303, 0.00149]
